Each item that follows carries a reported PBM 8-mer E-score.
# System: WT Max(13-93) synthetic (M65Nle)
# protocol description: PBM 8-mer E-score (E-score (rank enrichment, -0.5 to 0.5)); higher = stronger preferential binding
Whole data set: some 33,000 sequences, median “E-score (rank enrichment, -0.5 to 0.5)” near -0.0075, cut for the highest 2% near 0.23. The entries come from a sample that favours the highest values as a whole.

Reference set (6 entries):
ACAATGAT = 0.241
ACAATGTC = 0.108
ACAATGTA = 0.239
ACAATGAG = 0.137
AAAATGAA = 0.138
GCAATGTA = 0.0841

q: Consider the sequence GAATGGGA and give its measured PBM 8-mer E-score.
a: 0.0933

q: Consider the sequence AAAATGAC and give its measured PBM 8-mer E-score.
a: 0.174
